Here, each record is paired with measured gcPBM binding intensity (ln) data.
# Test system: PfAP2-I AP2 domain 3 (GST-tagged)
# TEST DESCRIPTION: gcPBM binding intensity (ln(normalized median fluorescence intensity)); higher = stronger DNA binding
Whole data set: some 25,000 sequences, median “ln(normalized median fluorescence intensity)” near 7.9, cut for the highest 2% near 11. The sample holds the highest values, similar sequences and a random draw of the others, so the mix is not that of the screen.

Worked examples follow.
Input: I'd like to know its gcPBM binding intensity (ln). The sequence in question is AAATCGTAATATATTTGTACTTATTTGAAAAATCCA [XGTACX_site8141]
Output: 7.76

Input: I'd like to know its gcPBM binding intensity (ln). The sequence in question is TAAAAAATAAAATACACACACATATTTATATTTATA [CACACA_site6737]
Output: 7.41

Input: I'd like to know its gcPBM binding intensity (ln). The sequence in question is ATGTTATTAATAATTGCACACATTTTTTTTTTTTTT [CACACA_site3920]
Output: 9.12

Input: I'd like to know its gcPBM binding intensity (ln). The sequence in question is GAATAAAAAAAAAAAAAAATTTATTTTATAATAAAA [CACACA_negctrl_site1514]
Output: 7.24

Input: I'd like to know its gcPBM binding intensity (ln). The sequence in question is TCTTTCCTTATTAAAACACACAAATACATTATTTAA [CACACA_site2147]
Output: 7.84

***
Input: I'd like to know its gcPBM binding intensity (ln). The sequence in question is TTTAATTAAATATGTATATATATTCATGTATGTATA [GTGCAC_negctrl_site14]
Output: 7.68

Input: I'd like to know its gcPBM binding intensity (ln). The sequence in question is AATATGTAAATATGGGTGCTTTAAAATATATTCATT [GTGCAC_site9583]
Output: 11.1

Input: I'd like to know its gcPBM binding intensity (ln). The sequence in question is GTCAAATTTTTGTGCACACATATATAGTTATTATTA [CACACA_site2241]
Output: 11.2

Input: I'd like to know its gcPBM binding intensity (ln). The sequence in question is CAGTTGTTAATTTGTGTGCACCAAATATTATACATA
Output: 11

Input: I'd like to know its gcPBM binding intensity (ln). The sequence in question is TTCATTTTTTGCTTTCAACACACATACAATATATAT [CACACA_site9369]
Output: 8.01

Input: I'd like to know its gcPBM binding intensity (ln). The sequence in question is ATTAGTATAATGTAACTTAGTTAATAGTGCTAATAT [CACACA_negctrl_site764]
Output: 9.54

###

# Test system: PfAP2-I AP2 domain 3 (GST-tagged)
# TEST DESCRIPTION: gcPBM binding intensity (ln(normalized median fluorescence intensity)); higher = stronger DNA binding
The full ranking holds about 25,000 sequences; the median of “ln(normalized median fluorescence intensity)” is about 7.9, and the highest 2% start at about 11. The sample holds the highest values, similar sequences and a random draw of the others, so the mix is not that of the screen.
PROPERTY: gcPBM binding intensity (ln)
Just the number, please.

Worked examples follow.
Input: Which gcPBM binding intensity (ln) is reported with PfAP2-I AP2 domain 3 (GST-tagged) for this entry: TATATTGCAAAAAGTACACACATAAATAAATACATA [CACACA_site6589] ?
Output: 8.2

Input: Which gcPBM binding intensity (ln) is reported with PfAP2-I AP2 domain 3 (GST-tagged) for this entry: ATTATTATTATATTTTGTACATATGTAACAATATAT [XGTACX_site5780] ?
Output: 7.83

***
Input: Which gcPBM binding intensity (ln) is reported with PfAP2-I AP2 domain 3 (GST-tagged) for this entry: TATATATTAATATTTACACACATGCGCACCCATAAA [CACACA_site2410] ?
Output: 9.86

Input: Which gcPBM binding intensity (ln) is reported with PfAP2-I AP2 domain 3 (GST-tagged) for this entry: ATGTTACACCGACACACACACATAAAAAAACAAAAA [CACACA_site5750] ?
Output: 8.15

Input: Which gcPBM binding intensity (ln) is reported with PfAP2-I AP2 domain 3 (GST-tagged) for this entry: ATATATATATATATTACACACTTTTTCTTTTTTTTT [CACACA_site2780] ?
Output: 9.41

Input: Which gcPBM binding intensity (ln) is reported with PfAP2-I AP2 domain 3 (GST-tagged) for this entry: AAATAAATAAATAGAGTGCATATATATATATATTTT ?
Output: 10

Input: Which gcPBM binding intensity (ln) is reported with PfAP2-I AP2 domain 3 (GST-tagged) for this entry: ATCCTCTTTACAATATGTACATAAATATATATTTAT [XGTACX_site8001] ?
Output: 8.47

Input: Which gcPBM binding intensity (ln) is reported with PfAP2-I AP2 domain 3 (GST-tagged) for this entry: TTTTTTTGTTAAAAGGTGCTAATATATATAAGTGCT ?
Output: 10.1

Input: Which gcPBM binding intensity (ln) is reported with PfAP2-I AP2 domain 3 (GST-tagged) for this entry: TGAACAGACAAATACACACACTCAAAAAAAAAAAAG [CACACA_site7287] ?
Output: 7.68

Input: Which gcPBM binding intensity (ln) is reported with PfAP2-I AP2 domain 3 (GST-tagged) for this entry: TATTATAATATTTATACACACATAATTTTGATAAAT [CACACA_site583] ?
Output: 7.68

Input: Which gcPBM binding intensity (ln) is reported with PfAP2-I AP2 domain 3 (GST-tagged) for this entry: AAATATAAAGTGCACACACACAAAAAAAGAAAAAAA [CACACA_site6452] ?
Output: 10.2

Input: Which gcPBM binding intensity (ln) is reported with PfAP2-I AP2 domain 3 (GST-tagged) for this entry: ATAGATATACATATCACACATATATATATATATATA [CACACA_site4985] ?
Output: 9.19

Input: Which gcPBM binding intensity (ln) is reported with PfAP2-I AP2 domain 3 (GST-tagged) for this entry: ATTTATAATGATTTTTTTAGTAATCTTGTTATTTTT [XGTACX_negctrl_site373] ?
Output: 7.38

###

# Test system: PfAP2-I AP2 domain 3 (GST-tagged)
# TEST DESCRIPTION: gcPBM binding intensity (ln(normalized median fluorescence intensity)); higher = stronger DNA binding
In all, about 25,000 sequences were measured (“ln(normalized median fluorescence intensity)”: median about 7.9, highest 2% from about 11 on). Shown is part of a subset that was picked to be rich in the highest values.
# label = bin(measured gcPBM binding intensity (ln)), where bins are low bracket = under 8, middle bracket = from 8 up to 9, high bracket = 9 and over

Example entries and their recorded answers appear below.
Input: Band of TATTTTTTTTGTTAGGTGCATTTACATTTATTTTTA ?
Output: high bracket

Input: Band of CCCCCCGTGTTATATACACACATAATCAAATAAAAT [CACACA_site4111] ?
Output: high bracket

Input: Band of TCTTTTTTTTTTATTTGTACTTATTTTTTTCAAAAA [XGTACX_site3403] ?
Output: middle bracket

Input: Band of AAGCATATTATAAACACACACTGTATAAAGATATAT [CACACA_site6277] ?
Output: low bracket

Input: Band of ATTTATATATATATAGGTACACATATTTATATATAA [XGTACX_site8487] ?
Output: low bracket

As a next step, examine the sequence that follows.
Input: Band of TATGTATTTTTATGCACACATGCGTGGCTTATATAA [CACACA_site387] ?
Output: high bracket

###

# Test system: PfAP2-I AP2 domain 3 (GST-tagged)
# TEST DESCRIPTION: gcPBM binding intensity (ln(normalized median fluorescence intensity)); higher = stronger DNA binding
In all, about 25,000 sequences were measured (“ln(normalized median fluorescence intensity)”: median about 7.9, highest 2% from about 11 on). The sample holds the highest values, similar sequences and a random draw of the others, so the mix is not that of the screen.
PROPERTY: gcPBM binding intensity (ln)
Just the number, please.

Input: I'd like to know its gcPBM binding intensity (ln). The sequence in question is ATATTTTTTTTTTTCACACACATTTATATTGTATTA [CACACA_site5695]
Output: 8.01

Input: I'd like to know its gcPBM binding intensity (ln). The sequence in question is ATACATACATATGTATGTACGTATGTATGTATGTAT [XGTACX_site3853]
Output: 8

Input: I'd like to know its gcPBM binding intensity (ln). The sequence in question is TTTTTACTATAAGGGGAAAAAAAAAAAAATAATATA [XGTACX_negctrl_site279]
Output: 7.78

Input: I'd like to know its gcPBM binding intensity (ln). The sequence in question is AATAATATATATTACACACGCATCGTTCATTTATTT [CACACA_site2391]
Output: 7.87

Input: I'd like to know its gcPBM binding intensity (ln). The sequence in question is TTTATTTATATAATTACACACATATATACGCAAATG [CACACA_site2794]
Output: 7.78

Input: I'd like to know its gcPBM binding intensity (ln). The sequence in question is CATCATAGAGTGGAGTGTACAAATATGTCAACATAT [XGTACX_site2264]
Output: 7.99

***
Input: I'd like to know its gcPBM binding intensity (ln). The sequence in question is GAAAGAAAATATTAAGTGCATATTTTAATGATACAA [GTGCAC_site9712]
Output: 9.02

Input: I'd like to know its gcPBM binding intensity (ln). The sequence in question is ATATATATATAATTATATAAAATATATCATATGTTA [XGTACX_negctrl_site47]
Output: 8.76

Input: I'd like to know its gcPBM binding intensity (ln). The sequence in question is ATTTTTAATGGATAAGTGCATAATATTATGATGCAA
Output: 10.9

Input: I'd like to know its gcPBM binding intensity (ln). The sequence in question is TTTAATCATATGTTATATAATAAGCCCCCCCCCCAA [CACACA_negctrl_site486]
Output: 11.1

Input: I'd like to know its gcPBM binding intensity (ln). The sequence in question is TGTTTTATTTAGAAGGTGCACATTAATATTAAATAA
Output: 11.3

Input: I'd like to know its gcPBM binding intensity (ln). The sequence in question is TCTTTTACAAAAGCTATAACATTCACCACATTATAA [GTGCAC_negctrl_site133]
Output: 7.68

Cited source for all entries: the supplement of paper PMC11417369
